pIC50 values for Histone-lysine N-methyltransferase, H3 lysine-79 specific (Homo sapiens, UniProt Q8TEK3), compiled from several publications.
pIC50: −log10 of the molar value.
Readout kind: pIC50

- Nc1ncnc2c1c(I)nn2[C@@H]1O[C@H](CO)[C@@H](O)[C@H]1O: 4.66
- CN(c1ccc2ncccc2c1)c1c(Cl)cccc1Cl: 4.01

I = Cc1ccc(-c2nn3c(Cn4cnc5ccccc54)nnc3s2)cc1C
II = CCn1c(N)c(C#N)c2cc(Oc3ccc(NC(=O)CN)cc3)ccc21
III = Nc1ncnc2c1c(-c1ncco1)cn2[C@@H]1O[C@H](CO)[C@@H](O)[C@H]1O
IV = Cc1cc(N)c2cc(Nc3ccnc(Nc4ccc5nc(C)cc(N)c5c4)n3)ccc2n1
V = Brc1cccc(-c2nn3c(Cn4cnc5ccccc54)nnc3s2)c1
QUERY: Give the ascending ranking of the items by reported pIC50. Ranked list of labels, please, in the requested order.
RESULT: II, III, I, V, IV

----------
pIC50 values for UniProtKB Q8TEK3, compiled from several publications.
pIC50: −log10 of the molar value.
Readout kind: pIC50

a = CN(CCCNC(=O)Nc1ccccc1)C[C@H]1C[C@@H](c2ccc3c(N)ncnn23)[C@H](O)[C@@H]1O
b = C#CCN(c1ccc2ncnc(N)c2c1)c1c(Cl)cccc1Cl
c = COc1cc(C)nc2ccc(Nc3cc(C)nc(Nc4ccc5nc(C)cc(OC)c5c4)n3)cc12
QUERY: // rank the listed compounds by pIC50, lowest value first Ranked list of labels, please, in the requested order.
RESULT: c, b, a

----------
pIC50: −log10 of the molar value.
pIC50 values for Histone-lysine N-methyltransferase, H3 lysine-79 specific (Homo sapiens), compiled from several publications.
Readout kind: pIC50

* Cc1cc(Nc2ccc3nc(C)cc(N)c3c2)nc(NCCCCCCNC(=O)Nc2cc(C(F)(F)F)cc(C(F)(F)F)c2)n1 | 5.45
* CCN(CCNC(=O)Nc1ccc(C(C)(C)C)cc1)c1nc(C)cc(Nc2ccc3nc(C)cc(N)c3c2)n1 | 5.24

I = c1ccc2c(c1)nnn2Cc1nnc2sc(-c3ccc4c(c3)OCCO4)nn12
II = N#Cc1c(N)n(CC2CC2)c2ccc(Oc3ccc(NC(=O)CN)cc3)cc12
QUERY: Could you check which of I and II has a smaller value for pIC50? API: response body contains the label of the selected item.
RESULT: II
(II: 4.02, I: 5.08)
